Field: Percentage inhibition of kinase enzyme activity. Provide a value for each of the compounds that follow.
# SUBJECT_OF_TEST: MNK2 (Homo sapiens, UniProt Q9HBH9)
# Construct: purchased Carna Biosciences
# Sequence (Q9HBH9 whole entry): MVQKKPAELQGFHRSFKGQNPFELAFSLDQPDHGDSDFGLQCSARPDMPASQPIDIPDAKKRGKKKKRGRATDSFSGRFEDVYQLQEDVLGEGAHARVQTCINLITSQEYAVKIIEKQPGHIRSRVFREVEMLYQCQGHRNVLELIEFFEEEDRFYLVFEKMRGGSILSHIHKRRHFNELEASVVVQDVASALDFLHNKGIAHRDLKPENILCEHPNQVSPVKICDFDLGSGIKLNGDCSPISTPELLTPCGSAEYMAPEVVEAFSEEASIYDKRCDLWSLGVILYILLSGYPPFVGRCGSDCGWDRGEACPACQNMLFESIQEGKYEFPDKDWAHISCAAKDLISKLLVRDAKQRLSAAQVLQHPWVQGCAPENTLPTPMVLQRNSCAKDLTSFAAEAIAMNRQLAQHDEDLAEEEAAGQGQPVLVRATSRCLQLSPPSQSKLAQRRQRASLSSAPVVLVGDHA
# EXPERIMENTAL_DETAILS: Kinase panel profiling at 1 µmol/L (mobility shift assay, Carna)
# Type: biochemical
# CONDITION_SUMMARY: 1 µmol/L of BTK inhibitor
Numbers only, in %.

COMPOUND: CC#CC(=O)N1CCC[C@H]1c1nc(-c2ccc(C(=O)Nc3ccccn3)cc2)c2c(N)nccn12 [acalabrutinib]
UNIT_LABEL: %
REPORTED_MEASUREMENT: 12.37
//
COMPOUND: O=C(c1ccc(Oc2ccccc2)cc1Cl)c1c[nH]c2ncnc(N[C@@H]3CC[C@@H](CO)OC3)c12 [nemtabrutinib]
UNIT_LABEL: %
REPORTED_MEASUREMENT: 56.12
//
COMPOUND: C=CC(=O)N1CCC[C@@H](n2nc(-c3ccc(Oc4ccccc4)cc3)c3c(N)ncnc32)C1 [ibrutinib]
UNIT_LABEL: %
REPORTED_MEASUREMENT: 19.75

Next, consider the following compound.
## Input Look up Percentage inhibition of kinase enzyme activity: COc1ccc(F)cc1C(=O)NCc1ccc(-c2nn([C@@H](C)C(F)(F)F)c(N)c2C(N)=O)cc1 [pirtobrutinib]
## Output 7.34

###

# SUBJECT_OF_TEST: SYK (Homo sapiens)
# Construct: purchased Carna Biosciences
# EXPERIMENTAL_DETAILS: Kinase panel profiling at 1 µmol/L (mobility shift assay, Carna)
# Format: biochemical
# CONDITION_SUMMARY: 1 µmol/L of BTK inhibitor
READOUT_TYPE: Percentage inhibition of kinase enzyme activity (%)
Numbers only, in %.

RECORD_SMILES: O=C(c1ccc(Oc2ccccc2)cc1Cl)c1c[nH]c2ncnc(N[C@@H]3CC[C@@H](CO)OC3)c12
UNIT_LABEL: %
REPORTED_MEASUREMENT: 3.99
//
RECORD_SMILES: CC#CC(=O)N1CCC[C@H]1c1nc(-c2ccc(C(=O)Nc3ccccn3)cc2)c2c(N)nccn12
UNIT_LABEL: %
REPORTED_MEASUREMENT: -19.36
//
RECORD_SMILES: COc1ccc(F)cc1C(=O)NCc1ccc(-c2nn([C@@H](C)C(F)(F)F)c(N)c2C(N)=O)cc1
UNIT_LABEL: %
REPORTED_MEASUREMENT: -13.08

## Input # get_value(readout='Percentage inhibition of kinase enzyme activity', item= `C=CC(=O)N1CCC[C@@H](n2nc(-c3ccc(Oc4ccccc4)cc3)c3c(N)ncnc32)C1` )
## Output -19.83

###

# SUBJECT_OF_TEST: PKCη (Homo sapiens, UniProt P24723)
# Construct: purchased Carna Biosciences
# Sequence (P24723 whole entry): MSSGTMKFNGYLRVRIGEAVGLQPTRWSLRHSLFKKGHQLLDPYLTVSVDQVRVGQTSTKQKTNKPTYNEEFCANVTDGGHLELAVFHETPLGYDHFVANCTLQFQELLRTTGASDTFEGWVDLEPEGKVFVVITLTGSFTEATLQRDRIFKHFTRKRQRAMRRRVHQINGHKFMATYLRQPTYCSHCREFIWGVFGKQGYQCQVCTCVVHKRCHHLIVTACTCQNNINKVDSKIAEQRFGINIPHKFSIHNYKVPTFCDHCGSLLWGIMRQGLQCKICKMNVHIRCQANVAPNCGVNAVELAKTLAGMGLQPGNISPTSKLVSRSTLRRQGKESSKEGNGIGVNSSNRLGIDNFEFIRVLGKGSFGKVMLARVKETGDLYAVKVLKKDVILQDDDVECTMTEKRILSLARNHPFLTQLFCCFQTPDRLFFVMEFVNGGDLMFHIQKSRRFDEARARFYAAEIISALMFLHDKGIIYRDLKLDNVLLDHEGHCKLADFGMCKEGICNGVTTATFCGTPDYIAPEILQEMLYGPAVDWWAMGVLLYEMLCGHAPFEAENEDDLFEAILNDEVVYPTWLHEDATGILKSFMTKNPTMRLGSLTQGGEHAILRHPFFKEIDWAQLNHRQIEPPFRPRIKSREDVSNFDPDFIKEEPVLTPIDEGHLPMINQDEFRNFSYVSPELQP
# EXPERIMENTAL_DETAILS: Kinase panel profiling at 1 µmol/L (mobility shift assay, Carna)
# Assay type: biochemical
# CONDITION_SUMMARY: 1 µmol/L of BTK inhibitor
Exercise: state measured Percentage inhibition of kinase enzyme activity for each of the molecules provided.
Numbers only, in %.

// known answers, use as guide
RECORD_SMILES: O=C(c1ccc(Oc2ccccc2)cc1Cl)c1c[nH]c2ncnc(N[C@@H]3CC[C@@H](CO)OC3)c12
SUBJECT_OF_TEST: PKCη (Homo sapiens, UniProt P24723)
REPORTED_MEASUREMENT: 5.25

RECORD_SMILES: CC#CC(=O)N1CCC[C@H]1c1nc(-c2ccc(C(=O)Nc3ccccn3)cc2)c2c(N)nccn12
SUBJECT_OF_TEST: PKCη (Homo sapiens, UniProt P24723)
REPORTED_MEASUREMENT: -3.18

RECORD_SMILES: COc1ccc(F)cc1C(=O)NCc1ccc(-c2nn([C@@H](C)C(F)(F)F)c(N)c2C(N)=O)cc1
SUBJECT_OF_TEST: PKCη (Homo sapiens, UniProt P24723)
REPORTED_MEASUREMENT: 3.32

Moving on to another molecule below.
## Input Percentage inhibition of kinase enzyme activity for `C=CC(=O)N1CCC[C@@H](n2nc(-c3ccc(Oc4ccccc4)cc3)c3c(N)ncnc32)C1` ?
## Output 3.27
